All figures here come from ChEMBL document CHEMBL5257025.

Tested on: TRAMP-C2H
Method Notes: Cytotoxicity against mouse TRAMP-C2H cells assessed as inhibition of cell growth measured after 72 hs by MTT assay
Type: functional, cell-based
Endpoint: pIC50
Numbers only, as −log10 of the molar value.

Count: 3. Required value per item: pIC50.
1. Nc1ccn([C@@H]2O[C@H](CO)[C@@H](O)C2(F)F)c(=O)n1 [GEMCITABINE]
2. C[C@@H]1CC[C@H]2[C@@H](C)C(CC(CO)CC3O[C@H]4O[C@@]5(C)CC[C@H]6[C@H](C)CC[C@@H]([C@H]3C)[C@@]46OO5)O[C@H]3O[C@@]4(C)CC[C@@H]1[C@]32OO4 (stereo partly drawn)
3. C[C@@H]1CC[C@H]2[C@@H](C)C(CC(COC(=O)c3cc[n+]([O-])cc3)CC3O[C@H]4O[C@@]5(C)CC[C@H]6[C@H](C)CC[C@@H]([C@H]3C)[C@@]46OO5)O[C@H]3O[C@@]4(C)CC[C@@H]1[C@]32OO4 (stereo partly drawn)

Output line:
1: 8.43; 2: 8.04; 3: 7.44

---

Can you tell me CC50 for the items I'm about to list?
Method Notes: Cytotoxicity against African green monkey Vero cells
Type: toxicity, cell-based
Applied Conditions: chlorocebus sabaeus, read-out: TC50 (the source's name)
Numbers only, in nM.

Illustrative cases are given below, each with its answer.
C[C@@H]1CC[C@H]2[C@H](C[C@]3(Cc4cccc(F)c4)O[C@H]4O[C@@]5(C)CC[C@H]6[C@H](C)CC[C@@H]([C@H]3C)[C@@]46OO5)C(=O)O[C@H]3O[C@@]4(C)CC[C@@H]1[C@]32OO4; 5500
C[C@H]1[C@H](CCCC[C@H]2O[C@H]3O[C@@]4(C)CC[C@H]5[C@H](C)CC[C@@H]([C@H]2C)[C@@]35OO4)O[C@H]2O[C@@]3(C)CC[C@H]4[C@H](C)CC[C@@H]1[C@@]24OO3; 10000
C[C@H]1[C@H](CCCCC[C@H]2O[C@H]3O[C@@]4(C)CC[C@H]5[C@H](C)CC[C@@H]([C@H]2C)[C@@]35OO4)O[C@H]2O[C@@]3(C)CC[C@H]4[C@H](C)CC[C@@H]1[C@@]24OO3; 2800

Count: 3. Required value per item: CC50.
1. C[C@H]1[C@@H](O)O[C@H]2O[C@@]3(C)CC[C@H]4[C@H](C)CC[C@@H]1[C@@]24OO3
2. CCCCC[C@@]1(C[C@@H]2C(=O)O[C@H]3O[C@@]4(C)CC[C@H]5[C@H](C)CC[C@@H]2[C@@]35OO4)O[C@H]2O[C@@]3(C)CC[C@H]4[C@H](C)CC[C@@H]([C@H]1C)[C@@]24OO3
3. C[C@@H]1CC[C@H]2[C@H](C[C@]3(CCCCc4ccccc4)O[C@H]4O[C@@]5(C)CC[C@H]6[C@H](C)CC[C@@H]([C@H]3C)[C@@]46OO5)C(=O)O[C@H]3O[C@@]4(C)CC[C@@H]1[C@]32OO4

Output line:
1410
63000
2400

---

Tested on: A549
Method Notes: cells
Applied Conditions: Homo sapiens, A549, 48 h
Can you tell me IC50 for the items I'm about to list?
Numbers only, in nM.

Illustrative cases are given below, each with its answer.
COc1cccc2c1C(=O)c1c(O)c3c(c(O)c1C2=O)C[C@@](O)(C(=O)CO)C[C@@H]3O[C@H]1C[C@H](N)[C@H](O)[C@H](C)O1 [DOXORUBICIN]; 9
C[C@@H]1CC[C@H]2[C@@H](C)C(OCCN/C(=N/c3ccc(C(F)(F)F)cc3)NCCOC3O[C@@H]4O[C@]5(C)CC[C@@H]6[C@@H](C)CC[C@H]([C@@H]3C)[C@]46OO5)O[C@H]3O[C@@]4(C)CC[C@@H]1[C@]32OO4 (stereo partly drawn); 680

Moving on to another molecule below.
Input line: // lookup IC50 for C[C@@H]1CC[C@H]2[C@@H](C)C(OCCN/C(=N/c3ccc(Cl)cc3)NCCOC3O[C@@H]4O[C@]5(C)CC[C@@H]6[C@@H](C)CC[C@H]([C@@H]3C)[C@]46OO5)O[C@H]3O[C@@]4(C)CC[C@@H]1[C@]32OO4 (stereo partly drawn)
Output line: 980
